Protocol summary: Organ distribution of lenvatinib in rats with or without liver RT
Type: in vivo, Sprague-Dawley rats
Stated conditions: Sprague-Dawley, rat, heart, po, 3 mg/kg, Concentration of lenvatinib in heart, 3 mg/kg p.o., 6 h after administration, RT2Gy followed by lenvatinib
Description: A freely moving rat model was designed for the current study. The rats were anesthetized and immobilized on a board while undergoing computed tomography to localize the whole liver or a central area measuring 1.5 cm × 1.5 cm for the SBRT technique. For the whole liver field, the cranial margin was set 5 mm from the top of the diaphragm, and the caudal margin was set 5 mm lower than the liver margin. The whole liver was targeted for irradiation. […] Data were collected from six rats per group. […]
Endpoint name: concentration at 6 h (µg/mL)
I only need the number, in µg/mL, no unit after it.

Request: // fetch concentration at 6 h given entry `COc1cc2nccc(Oc3ccc(NC(=O)NC4CC4)c(Cl)c3)c2cc1C(N)=O`
Result: 0.074
